# credit: patent US11759462B2

biological target: Recombinant human TPH1 (MBP tagged) (Homo sapiens); construct: cloning full length human TPH1 cDNA in to a bacterial pMAL-c5E expression vector; made in house; host or cells: E. coli BL21 (DE3); experiment: TPH1 in vitro inhibition assay (kinetic fluorescence); format: biochemical; conditions: read-out: TPH1 Range (TPH1 inhibition IC50)
Sequence (P17752 whole entry): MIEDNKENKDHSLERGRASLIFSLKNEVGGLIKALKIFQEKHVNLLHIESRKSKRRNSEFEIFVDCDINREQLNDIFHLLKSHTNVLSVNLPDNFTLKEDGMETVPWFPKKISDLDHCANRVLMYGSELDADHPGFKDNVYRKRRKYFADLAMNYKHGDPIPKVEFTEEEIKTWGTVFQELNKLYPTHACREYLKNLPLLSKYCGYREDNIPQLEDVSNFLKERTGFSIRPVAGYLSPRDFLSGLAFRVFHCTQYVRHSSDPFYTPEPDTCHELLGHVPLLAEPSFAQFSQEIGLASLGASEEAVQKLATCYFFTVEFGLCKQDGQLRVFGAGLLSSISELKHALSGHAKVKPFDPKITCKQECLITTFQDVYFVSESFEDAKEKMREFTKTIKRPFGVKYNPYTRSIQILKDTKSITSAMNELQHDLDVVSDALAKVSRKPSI
quantityMeasured: IC50

### Prompt Give its IC50 value. Item: Nc1nc(O[C@H](c2ccc(Cl)cc2-c2cccc(C(=O)N3CCNCC3)c2)C(F)(F)F)cc(N2CCC3(CC2)CN[C@H](C(=O)O)C3)n1 [Example 34cq]
### Response < 50 nM

### Prompt Do the same for CCCc1ccc(-c2ccc([C@@H](Oc3cc(N4CCC5(CC4)CN[C@H](C(=O)O)C5)nc(N)n3)C(F)(F)F)cc2)cc1 [Example 55bs] please
### Response 300 to 3000 nM

### Prompt Do the same for Cc1ccn(-c2cc(Cl)ccc2[C@@H](Oc2nc(N)nc(N3CCC4(CC3)CNC(C(=O)O)C4)n2)C(F)(F)F)n1 (stereo partly drawn) [Example 40] please
### Response 300 to 3000 nM

### Prompt Do the same for Cn1c(=O)ccc2cc(-c3ccc([C@@H](Oc4cc(N5CCC6(CC5)CN[C@H](C(=O)O)C6)nc(N)n4)C(F)(F)F)cc3)ccc21 [Example 55u] please
### Response 50 to 300 nM

### Prompt Do the same for COc1cccc(-c2ccc([C@@H](Oc3cc(N4CCC5(CC4)CN[C@H](C(=O)O)C5)nc(N)n3)C(F)(F)F)cc2)c1 [Example 55an] please
### Response 50 to 300 nM

### Prompt Do the same for Cc1ccn(-c2cc(-c3cccc(OC(C)C)c3)ccc2[C@@H](Oc2cc(N3CCC4(CC3)CN[C@H](C(=O)O)C4)nc(N)n2)C(F)(F)F)n1 [Example 1bc] please
### Response < 50 nM

---
### Prompt Give its IC50 value. Item: Cc1n[nH]c2cc(-c3ccc([C@@H](Oc4cc(N5CCC6(CC5)CN[C@H](C(=O)O)C6)nc(N)n4)C(F)(F)F)cc3)ccc12 [Example 55az]
### Response < 50 nM

### Prompt Do the same for Nc1nc(O[C@H](c2ccccc2-c2cccc(Cl)c2)C(F)(F)F)cc(N2CCC3(CC2)CN[C@H](C(=O)O)C3)n1 [Example 42a] please
### Response < 50 nM

### Prompt Do the same for Cc1ccn(-c2ccc(-c3ccc(CCC(=O)O)cc3)cc2[C@@H](Oc2cc(N3CCC4(CC3)CN[C@H](C(=O)O)C4)nc(N)n2)C(F)(F)F)n1 [Example 19k] please
### Response < 50 nM

### Prompt Do the same for Nc1nc(NCc2ccccc2N2CCCCC2)cc(N2CCC3(CC2)CN[C@H](C(=O)O)C3)n1 [Example 41a] please
### Response 300 to 3000 nM
